// reported IC50 for each item listed
test system: Plasmodium falciparum; test: Antimalarial activity against Plasmodium falciparum 3D7; format: functional, organism-based
PROPERTY: IC50 (µM)

- CPD SMILES: "[N-]=[N+]=Nc1cc(=O)[nH]c(=O)n1[C@@H]1O[C@H](CO)[C@@H](O)[C@H]1O"
  RESULT QUALIFIER: "="
  MEASUREMENT: 1230
- CPD SMILES: "N#Cc1cc(=O)[nH]c(=O)n1[C@@H]1O[C@H](CO)[C@@H](O)[C@H]1O"
  RESULT QUALIFIER: "="
  MEASUREMENT: 446
- CPD SMILES: "CNc1cc(=O)[nH]c(=O)n1[C@@H]1O[C@H](CO)[C@@H](O)[C@H]1O"
  RESULT QUALIFIER: "="
  MEASUREMENT: 28.5
- CPD SMILES: "O=c1cc(I)n([C@@H]2O[C@H](CO)[C@@H](O)[C@H]2O)c(=O)[nH]1"
  RESULT QUALIFIER: "="
  MEASUREMENT: 6.2
- CPD SMILES: "Cc1cc(=O)[nH]c(=O)n1[C@@H]1O[C@H](CO)[C@@H](O)[C@H]1O"
  RESULT QUALIFIER: "="
  MEASUREMENT: 530
- CPD SMILES: "Nc1cc(=O)[nH]c(=O)n1[C@@H]1O[C@H](CO)[C@@H](O)[C@H]1O"
  RESULT QUALIFIER: ">"
  MEASUREMENT: 1500
- CPD SMILES: "CN(C)c1cc(=O)[nH]c(=O)n1[C@@H]1O[C@H](CO)[C@@H](O)[C@H]1O"
  RESULT QUALIFIER: "="
  MEASUREMENT: 31.7
